# Test system: NRK
# assay method text: Effect on morphological reversion in src transformed NRK cells at 100 ug/mL
# Format: functional
# condition info: Rattus norvegicus
# reported inhibition at 100 µg/mL; entries follow
quantity kind: inhibition at 100 µg/mL

1) CCCC[C@@]1(OC(=O)CCC(=O)OC)CC[C@]2(CC[C@H](C)[C@@H](C/C=C(C)/C=C/[C@H](O)[C@@H](C)/C=C/C(=O)O)O2)O[C@H]1/C=C/C(C)=C/C(=O)O	> 80%
2) CCCC[C@@]1(OC(=O)CCC(=O)O)CC[C@]2(CC[C@H](C)[C@@H](C/C=C(C)/C=C/[C@H](O)[C@@H](C)CO)O2)O[C@H]1/C=C/C(C)=C/C(=O)O	> 80%
3) CCCC[C@@]1(OC(=O)CCC(=O)O)CC[C@]2(CC[C@H](C)[C@@H](C/C=C(C)/C=C/CO)O2)O[C@H]1/C=C/C(C)=C/C(=O)O	< 10%
4) CCCC[C@@]1(OC(=O)CCC(=O)O)CC[C@]2(CC[C@H](C)[C@@H](C/C=C(\C)COC(=O)CCC(=O)O)O2)O[C@H]1/C=C/C(C)=C/C(=O)O	< 10%
5) CCCC[C@@]1(OC(=O)CCC(=O)O)CC[C@]2(CC[C@H](C)[C@@H](C/C=C(C)/C=C/[C@H](O)[C@@H](O)/C=C/C(=O)O)O2)O[C@H]1/C=C/C(C)=C/C(=O)O [4-HYDROXY REVEROMYCIN A]	> 80%
6) CCCC[C@@]1(OC(=O)CCC(=O)O)CC[C@]2(CC[C@H](C)[C@@H](C/C=C(C)/C=C/[C@H](OC)[C@@H](C)/C=C/C(=O)O)O2)O[C@H]1/C=C/C(C)=C/C(=O)O	< 10%
7) CCCC[C@@]1(OC(=O)CCC(=O)O)CC[C@]2(CC[C@H](C)[C@@H](C/C=C(C)/C=C/[C@H](O)[C@@H](C)CCC(=O)O)O2)O[C@H]1/C=C/C(C)=C/C(=O)O [2,3-DIHYDROREVEROMYCIN A]	> 80%
8) CC(/C=C/[C@H](O)[C@@H](C)/C=C/C(=O)O)=C\C[C@H]1O[C@@]2(CC[C@H](C)[C@H](/C=C/C(C)=C/C(=O)O)O2)CC[C@@H]1C [SPIROFUNGIN A]	> 80%
9) CCCC[C@@]1(O)CC[C@]2(CC[C@H](C)[C@@H](C/C=C(C)/C=C/[C@H](O)[C@@H](C)/C=C/C(=O)O)O2)O[C@H]1/C=C/C(C)=C/C(=O)O	< 10%
10) CCCC[C@@]1(OC(=O)CCC(=O)O)CC[C@]2(CC[C@H](C)[C@@H](C/C=C(C)/C=C/[C@H](O)[C@@H](C)/C=C/C(=O)O)O2)O[C@H]1/C=C/C(C)=C/C(=O)O [REVEROMYCIN A]	> 80%
11) CCCC[C@@]1(OC(=O)CCC(=O)O)CC[C@]2(CC[C@H](C)[C@@H](C/C=C(C)/C=C/[C@H](O)[C@@H](C)/C=C/C(=O)O)O2)O[C@H]1/C=C/C(C)=C/C(=O)OC	> 80%
12) CCCC[C@@]1(OC(=O)CCC(=O)O)CC[C@]2(CC[C@H](C)[C@@H](C/C=C(C)/C=C/[C@@H](O)[C@@H](C)/C=C/C(=O)O)O2)O[C@H]1/C=C/C(C)=C/C(=O)O [5-EPIREVEROMYCIN A]	< 10%
13) CCCC[C@@]1(OC(=O)CCC(=O)O)CC[C@]2(CC[C@H](C)[C@@H](C/C=C(\C)CO)O2)O[C@H]1/C=C/C(C)=C/C(=O)O	< 10%
